systemUnderTest: T1, L-selectin (LS-Rg) (Homo sapiens, UniProt P14151 P14151:39-332)
T1 sequence: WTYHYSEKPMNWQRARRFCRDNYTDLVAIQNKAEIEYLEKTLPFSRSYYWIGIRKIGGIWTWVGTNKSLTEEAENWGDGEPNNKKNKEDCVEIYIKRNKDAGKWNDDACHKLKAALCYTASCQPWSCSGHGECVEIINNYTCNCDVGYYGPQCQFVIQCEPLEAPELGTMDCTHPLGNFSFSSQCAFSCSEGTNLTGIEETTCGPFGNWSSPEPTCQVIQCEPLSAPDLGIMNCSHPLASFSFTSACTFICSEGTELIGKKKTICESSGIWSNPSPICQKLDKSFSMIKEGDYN
experimentalDetails: filter; 37 C
experimentalContext: tags: human IgG2 Fc fusion; chain copies: 2 (stated dimer)
Experimental: Unless otherwise indicated, all materials used in the 2′-F RNA SELEX against the L-selectin/IgG2 chimera, LS-Rg, were identical to those of Examples 7, paragraph A and 13, paragraph A. SHMCK-140 buffer, used for all SELEX and binding experiments, was 1 mM CaCl₂, 1 mM MgCC₂, 140 mM NaCl, 5 mM KCl. and 20 mM HEPES, pH 7.4. A soluble form of L-selectin, corresponding to the extracellular domains, was purchased from R&D Systems and used for some nitrocellulose filter binding experiments. […]
Answer each item with its documented Kd.
State the answer as a number, implicitly in nM.

q: Give the reported Kd for this binder. LF1529 (ssRNA, 2'-F C and U) RNA: GGGAGGACGAUGCGGACCCUCAAAUAACGUGUCUUUCAAGUUGGUCAGACGACUCGCCCGA
a: 0.6

q: Give the reported Kd for this binder. LF1808 (ssRNA, 2'-F C and U) RNA: GGGAGGACGAUGCGGCAUGGUCUUAGGCGACGCGUUUAUAUCGAGUCACCAUGCUCAGACGACUCGCCCGA
a: 0.6

q: Give the reported Kd for this binder. LF1614 (ssRNA, 2'-F C and U) RNA: GGGAGGACGAUGCGGCAAACAAGCUCAAAUGACGUGUUUUUCAAGUCCUUGUUGUCAGACGACUCGCCCGA
a: 0.17

q: Give the reported Kd for this binder. LF1527 (ssRNA, 2'-F C and U) RNA: GGGAGGACGAUGCGGACCCUCAAAUAGCGUGCAUUUCAAGCUGGUCAGACGACUCGCCCGA
a: 0.32

The reported measurements were obtained from patent US20030059769.
